All values here come from the RNAGym collection of RNA variant scans (doi:10.1073/pnas.2313332121).

B1: TPR t1 (parent)
chain: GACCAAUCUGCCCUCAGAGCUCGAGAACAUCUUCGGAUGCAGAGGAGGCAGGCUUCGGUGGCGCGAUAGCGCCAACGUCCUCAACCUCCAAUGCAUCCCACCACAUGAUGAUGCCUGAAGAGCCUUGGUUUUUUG

Variants of: B1
ASSAY REMARKS: polymerase ribozyme fitness, log enrichment relative to wild type (log ratio); higher = more active; in vitro selection for triplet polymerase activity
Here the recorded polymerase ribozyme fitness (log ratio) is given for each entry.
Answer with the value's number alone.

• GACCAAUCUGACUUCAGAACUCGAGAACAUCUUCGGAUGCAGAGGAGGCAGGCUUGGGUGGCGCGAUAGCGUCAACGUCCUCAACCUCCAAUGCAUCCCACCACAUGAUGAUGCCUGAAGAGCCUUGGUUUUUUG [C11A C13U G19A C56G C72U] = -4.6
• GACCAAUCUGCACUCAGAGAUCGAGAACAUCUUCGGAUGCAGAGGAGGCAGGCUUCGGUGACGCGAUAGCGCCAACGUCCUCAACCUUCAAUGCAUCCCACCACAUGAUGAUGCCCGAAGAGCCUUGGUUUUUUG [C12A C20A G61A C88U U116C] = -4.6
• GACCAAUCUGCCCUCAGAGCUCGAGAACAUCUUCGGGUGCAGAGGAGGCAGGCUUCGGUGGCGCGAUAGCGCCAACGUCCUCAACCUCCAAAGCAUCCCACCACAUGAUGAUGCCUGAAGAGCCUUGGUUUUUUG [A37G U92A] = -2.8
• GACCAAUCUGCCCUCAGAGCUCGAGAACAUCUUCGGAUGCAGAGGAGGCAGGCUUCGGUGACGCGAUAGCGCCAACGUCCUCAACCUCCAAUGCAUCCCACCACAUGAUGUUGCCUGAAGAGCCUUGCUUUUGUG [G61A A111U G128C U133G] = -4.57
• GACCAAUGUGCCCUCAGUGCUCGAGAACAUCUUCGGAUGCAGAUGAAGCAGGCUUCGGUGGCGCGAUAGCGCCAACGUCCUCAACCUCCAAUGCAUCCCACAACAUGAUGAUGCCUGAAACGCUUUGGUUUUUUG [C8G A18U G44U G47A C102A G120A A121C C124U] = -6.31
• GACCAAUCUGCCCUCAGAGCUCGAGAACAUCUUCGGAUGCUGAGGAGGCAGGCUGCGGUGGCGCGAUAGCGCCAACGUCCUCAACCUCCAUUGCAUCCCAGCACAUGAUGAUGCCUGAAGAGCCUUGGUUUUUUG [A41U U55G A91U C101G] = -4.09
• GACCAAUCUACCCUCAGAGCUCGAGAACGUCUUCGGAUGCAGAGGAGGCAGGCUUCGGUGGUGCGAUAGCGCCAACGUCCUCAACCUCCAAUGCAUCCCACCACAUGAUGAUACCUGAAGAGCCUUGGUAUUUUG [G10A A29G C62U G113A U130A] = -3.56
• GACCAAUCUGCCCUCAGAGCUCGAGAACAUCUUCGGAUGCAGAGGAGGCAGGUUUCGGUGGCGCGAUAGCUCCAACGUCCUCAACCUCCAAUGCAUCCCACCACAUGAUGAUGCCUGAAGAGCCUUGGUUUUUUG [C53U G71U] = -0.192
• GACCAUUCUGCUCUCAGAGCUCGAGAUCAUCUUCGGAUGCAGAGGAGGCAGGCUUCGGUGGCGCGAUAGCGCCAACGUCCUCAACCUCCAAUGCAUCCCACCACAUGAUGAUGCCUGAAGAGCCUUGGUUUUUUG [A6U C12U A27U] = -1.6
• GAUCAAUCUGGCCUCAGAGCGCGAGAACAUCUUCGGAUGCAGAGGAGGCAGGCUUCGGUGGCGCGAUAGCGCCAACGUCCUCAACCUCCAAUGCAUCCCACCACAUGAUGAUUCCUGAAGAGCCUUAGUUUUUUG [C3U C11G U21G G113U G127A] = -2.58

Query: polymerase ribozyme fitness (log ratio); subject: GACCAAUCUGCCCUCAGAGCUCGAGAACAUCUUCGGAUGCAGAGGAGGCAGGCUUCGGUGGCGCGAUAGCGCCAACCUCCUCAACCUCCAAUGCAUCCCACCACAUGAUGAUGACUGAAGAGCUUUGGUUUUUUG [G77C C114A C124U]
-2.41

Entry GACCAAUCUGCUCUCAGAGCUCGAGAACAUCUUCGGAUGCAUAGGAGGCAGGCUUCGGUGGCGCGAUAGUGCCAACGUCCCCAACCUCCAAUGCAUCCCACCACAUGAUGAUGCCUGAAUAGCCUUGGUUUUUUG [C12U G42U C70U U81C G120U] has what polymerase ribozyme fitness (log ratio)?
-1.9

Fill in: polymerase ribozyme fitness (log ratio) of GUCCAAUCUGCCCUCACAGCUCGAGUACAUCUUCGGAUACAGAGGAGGCAGGCUUCGGGGUCGCGAUAGCGCCAACGUCCUCGACCUCCAAUGCAUCCCACCACAUGAUGAUGCUUGAAGAGCCUUGGUUUUUUG [A2U G17C A26U G39A U59G G61U A83G C115U] is ___
-6.19

Name the reported polymerase ribozyme fitness (log ratio) value associated with the variant GACCAAUCUGCCCUCAGAGCUCGAGAACAUCUUCGGAUGCAGAGGAGGCAGGCUUCGGUGGCGCGAUAGCGCCAACGUCCUCAACCUCCAAUGCAACCCACCACAUGAUUAUGCCUGAAGAGCCUUGGUUUUUUG [U96A G110U]
-2.56

# get_value(readout='polymerase ribozyme fitness (log ratio)', item= GACCAAUCUGCCUUCAGAGCUAGAGCACAUCUUCGGAUGCAGAGGAGGCAGGCUUGGGUGGCGCGAUAGCGCCAACGUCCUCAACCUCCAAUGCAUCCCACCACAUGAUGAUGCCUGAAGAACCUUGGUUUUUUG [C13U C22A A26C C56G G122A] )
-4.98

I would be grateful if you could share the reported polymerase ribozyme fitness (log ratio) for GACCAAUCUGCCCUCAGAGCUCGAGAACAUCUUCGGCUGCAGAGGAGGCAGGCUUCGGUGGCGCGAUAGCGCCAUCGUCCUCAACCUCUAAUGCAUCCCACAACAUGAUGAUGCCUGAAGAGCCUUGGUUUUUUG [A37C A75U C89U C102A] .
-2.92

Give the measured polymerase ribozyme fitness (log ratio) of GACCAAUCUGCCCUCAGAGCUCGAGAACAUCUUCGGAUGCAUAGCAGGCGGGCUUCGGUGGCGCGAUAGCGCCAACGUCCUUAACCUCCAAUGCAUCCCACCACAUGAUGAUGCCUGAAGGGCCUUGGUUUUUUG [G42U G45C A50G C82U A121G] .
0.685
